test-target: AChE from Electrophorus electricus (Electrophorus electricus, UniProt O42275)
Construct: purchased Sigma-Aldrich Co. LLC; (St. Louis, MO, USA)
Sequence (O42275 24-633): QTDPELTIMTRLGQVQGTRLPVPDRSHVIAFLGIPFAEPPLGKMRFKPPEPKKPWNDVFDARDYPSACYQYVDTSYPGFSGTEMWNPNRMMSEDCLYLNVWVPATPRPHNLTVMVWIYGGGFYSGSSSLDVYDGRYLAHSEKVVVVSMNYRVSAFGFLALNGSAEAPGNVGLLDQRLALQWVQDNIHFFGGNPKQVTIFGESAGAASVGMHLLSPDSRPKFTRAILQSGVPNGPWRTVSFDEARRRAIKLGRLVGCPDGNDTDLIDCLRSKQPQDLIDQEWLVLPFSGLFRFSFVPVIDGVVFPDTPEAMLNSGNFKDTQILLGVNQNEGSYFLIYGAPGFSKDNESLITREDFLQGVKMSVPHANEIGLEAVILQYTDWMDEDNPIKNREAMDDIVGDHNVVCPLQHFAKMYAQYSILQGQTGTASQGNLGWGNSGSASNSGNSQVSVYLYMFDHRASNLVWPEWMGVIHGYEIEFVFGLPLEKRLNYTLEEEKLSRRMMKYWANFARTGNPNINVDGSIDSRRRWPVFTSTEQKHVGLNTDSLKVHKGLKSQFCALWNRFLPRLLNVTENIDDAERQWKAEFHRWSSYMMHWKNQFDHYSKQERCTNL
protocol-notes: biochemical
condition-label: mean ± SD (n = 3); read-out: IC50 AChE
measurement-type: pIC50
Answers are plain numbers, as −log10 of the molar value.

The recorded pIC50 for entry COc1cc2c(cc1O)C(Cc1ccc(Oc3cc(CC4c5cc(O)c(OC)cc5CCN4C)ccc3OC)cc1)NCC2 (stereo not shown) equals 4.64

----------
Exercise: for every item that follows, state its recorded IC50.
test-target: BChE from equine serum (Equus caballus)
Construct: AChE from Electrophorus electricus and BChE from equine serum were purchased from Sigma-Aldrich Co. LLC; purchased Sigma-Aldrich Co. LLC; (St. Louis, MO, USA); host or cells: equine serum
protocol-notes: biochemical
Format: biochemical
Experimental: The cholinesterase inhibitory activities of the extracts and fompounds 1–6 were performed as previously described. AChE from Electrophorus electricus and BChE from equine serum were purchased from Sigma-Aldrich Co. LLC. (St. Louis, MO, USA). An amount of 0.1 M of sodium phosphate buffer (pH 8) was added to a 96-well microplate followed by the sample and 1U of the AChE or BChE. […]
Answers are plain numbers, in µM.

>>> result("COc1ccc2c(c1OC)-c1c(OC)c(OC)cc3c1C(C2)NCC3 (stereo not shown)")
32.9
>>> result("COc1ccc2c(c1OC)-c1c(OC)c(OC)cc3c1C(C2)N(C)CC3 (stereo not shown)")
49.7
>>> result("COc1cc2c(cc1O)[C@@H](Cc1ccc(Oc3cc(C[C@H]4NCCc5cc(OC)c(O)cc54)ccc3OC)cc1)NCC2")
2.9

The recorded IC50 with BChE from equine serum (Equus caballus) for COc1cc2c3c(c1O)-c1c(ccc(OC)c1OC)C[C@@H]3N(C)CC2 was 52.9

----------
test-target: AChE from Electrophorus electricus (Electrophorus electricus, UniProt O42275)
Construct: purchased Sigma-Aldrich Co. LLC; (St. Louis, MO, USA)
protocol-notes: biochemical
measurement-type: IC50 (µM)
One number for each entry, in µM.

The reported value for COc1cc2c(cc1O)[C@@H](Cc1ccc(Oc3cc(C[C@H]4NCCc5cc(OC)c(O)cc54)ccc3OC)cc1)NCC2 [Compound 2, costaricine] in terms of IC50 is 17.5

----------
test-target: AChE from Electrophorus electricus (Electrophorus electricus)
Construct: purchased Sigma-Aldrich Co. LLC; (St. Louis, MO, USA)
protocol-notes: biochemical
condition-label: read-out: Percentage Inhibition at 100 µM, AChE, 100 µM; mean ± SD (n = 3)
measurement-type: inhibition at 100 µM (%)
Answers are plain numbers, in %.

>>> result("COc1cc2c3c(c1O)-c1c(ccc(OC)c1OC)C[C@@H]3N(C)CC2 [Compound 5, corydine]")
29.7

Summary line: COc1ccc2c(c1OC)-c1c(OC)c(OC)cc3c1C(C2)N(C)CC3 (centres unmarked) [Compound 4, N-methyl hernagine] , AChE from Electrophorus electricus (Electrophorus electricus), reported inhibition at 100 µM = 23.1

----------
test-target: BChE from equine serum (Equus caballus, UniProt P81908)
Construct: AChE from Electrophorus electricus and BChE from equine serum were purchased from Sigma-Aldrich Co. LLC; purchased Sigma-Aldrich Co. LLC; (St. Louis, MO, USA); host or cells: equine serum
Sequence (P81908 whole entry): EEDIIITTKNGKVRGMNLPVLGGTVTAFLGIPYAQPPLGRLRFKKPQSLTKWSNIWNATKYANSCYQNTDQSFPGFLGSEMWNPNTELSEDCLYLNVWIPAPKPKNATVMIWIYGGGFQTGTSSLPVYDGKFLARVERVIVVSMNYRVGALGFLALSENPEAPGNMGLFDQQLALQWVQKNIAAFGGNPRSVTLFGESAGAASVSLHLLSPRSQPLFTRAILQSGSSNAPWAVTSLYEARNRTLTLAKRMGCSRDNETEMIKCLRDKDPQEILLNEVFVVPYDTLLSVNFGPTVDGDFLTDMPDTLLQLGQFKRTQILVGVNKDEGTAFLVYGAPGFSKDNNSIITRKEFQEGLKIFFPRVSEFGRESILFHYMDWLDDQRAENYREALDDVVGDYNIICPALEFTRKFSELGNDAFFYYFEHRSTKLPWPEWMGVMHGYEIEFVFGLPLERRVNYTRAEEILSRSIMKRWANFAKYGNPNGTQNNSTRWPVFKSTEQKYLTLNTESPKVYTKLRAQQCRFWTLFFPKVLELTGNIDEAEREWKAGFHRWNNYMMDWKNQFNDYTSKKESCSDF
protocol-notes: biochemical
Format: biochemical
condition-label: mean ± SD (n = 3); read-out: IC50 BChE
measurement-type: IC50 (µM)
One number for each entry, in µM.

// IC50 lookup, compound = COc1cc2c(cc1O)C(Cc1ccc(Oc3cc(CC4c5cc(O)c(OC)cc5CCN4C)ccc3OC)cc1)NCC2 (stereo not shown) , result: 3.51

----------
Would you kindly list inhibition at 100 µM for each of these compounds?
test-target: AChE from Electrophorus electricus (Electrophorus electricus, UniProt O42275)
Construct: purchased Sigma-Aldrich Co. LLC; (St. Louis, MO, USA)
protocol-notes: biochemical
condition-label: read-out: Percentage Inhibition at 100 µM, AChE, 100 µM; mean ± SD (n = 3)

In the examples that follow, each entry is paired with its recorded inhibition at 100 µM.
>>> result("COc1cc2c(cc1O)C(Cc1ccc(Oc3cc(CC4c5cc(O)c(OC)cc5CCN4C)ccc3OC)cc1)NCC2 (stereo not drawn)")
"> 70%"
>>> result("COc1ccc2c(c1OC)-c1c(OC)c(OC)cc3c1C(C2)NCC3 (stereo not drawn)")
"< 10%"

Now consider a different compound.
Memo: COc1cc2c(cc1O)[C@@H](Cc1ccc(Oc3cc(C[C@H]4NCCc5cc(OC)c(O)cc54)ccc3OC)cc1)NCC2 , reported inhibition at 100 µM: > 70%
